# Test description: Biodistribution of 67Ga complexes in mice
# Assay type: in vivo, balb/c mice
# Cond: 120 min
Quantity kind: biodistribution kidney (% ID)

Smiles entry: Cc1cc(C)c(O)c(NC(=O)CN(CCN(CC(=O)O)CC(=O)Nc2cc(C)cc(C)c2O)CC(=O)O)c1
Value observed: 0.06
--
Smiles entry: O=C(O)CN(CCN(CC(=O)O)CC(=O)Nc1ccc(Cl)cc1O)CC(=O)Nc1ccc(Cl)cc1O
Value observed: 0.01
--
Smiles entry: O=C(O)CN(CCN(CC(=O)O)CC(=O)Nc1ccccc1O)CC(=O)Nc1ccccc1O
Value observed: 0.05
--
Smiles entry: CC(C)(C)c1ccc(O)c(NC(=O)CN(CCN(CC(=O)O)CC(=O)Nc2cc(C(C)(C)C)ccc2O)CC(=O)O)c1
Value observed: 0.07
